- test.target: Mcl-1 protein (UniProtKB Q07820) (Homo sapiens (Human), UniProt Q07820)
- Sequence (Q07820 whole entry): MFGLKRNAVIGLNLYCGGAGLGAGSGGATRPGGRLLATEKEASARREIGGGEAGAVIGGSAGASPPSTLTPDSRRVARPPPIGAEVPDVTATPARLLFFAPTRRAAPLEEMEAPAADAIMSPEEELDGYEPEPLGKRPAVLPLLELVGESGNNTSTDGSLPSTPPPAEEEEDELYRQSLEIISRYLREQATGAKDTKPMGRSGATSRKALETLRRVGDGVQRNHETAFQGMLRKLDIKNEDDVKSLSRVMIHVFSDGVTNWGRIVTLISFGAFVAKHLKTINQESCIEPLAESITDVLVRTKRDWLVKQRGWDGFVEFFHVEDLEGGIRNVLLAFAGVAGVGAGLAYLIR
- test.details: Inhibition of Mcl-1 by the fluorescence polarisation assay (Example A, Method A)
- conditions: fluorescence polarization assay
pKi: −log10 of the molar value.
Hi, to clarify the labels: label 1 covers pKi from 6 upward, label 0 covers anything below 6.

compound	group.label
COc1ccc(Cl)c(C2Cc3ccccc3[C@]23CC[C@@](Nc2ccccc2)(C(=O)O)CC3)c1 (single isomer, unassigned) [Example 261]	label 0
Cc1cnccc1OCCC[C@H]1Cc2ccccc2[C@]12CC[C@@](Nc1cccc(Cl)c1)(C(=O)O)CC2	label 1
O=C(O)[C@]1(Nc2cccc(Cl)c2)CC[C@@]2(CC1)c1ccccc1C[C@H]2C[C@@H](COc1ccncc1)c1ccccc1	label 0
CC(C)C(COc1ccnc2ccsc12)CC1Cc2ccccc2C12CCC(Nc1cccc(Cl)c1)(C(=O)O)CC2 (stereo not shown)	label 1
O=C(O)C1(Nc2cccc(Br)c2)CCC2(CC1)c1ccccc1CC2c1ccc(Cl)cc1 (stereo not shown)	label 0
O=C(O)[C@]1(Nc2cccc(Cl)c2)CC[C@]2(CC1)C(CCCOc1cccc3[nH]ccc13)=Cc1ccccc12	label 1
O=C(O)[C@]1(Nc2cccc(Cl)c2)CC[C@@]2(CC1)c1ccccc1CC2CCCOc1ccccc1 (stereo partly shown) [Example 424]	label 1
